ASSAY_TEXT: NCI Yeast Anticancer Drug Screen. Data for the mec2-1 strain (AID 157)
PROTOCOL_CONDITIONS: S. cerevisiae mec2-1 strain, at 11.0 µM, stronger effect = higher value
The panel holds about 79,000 compounds, 15% with a hit somewhere; the sample as a whole holds those more often.
Each record here notes measured growth inhibition.
MEASUREMENT_NAME: growth inhibition (%)

CCCCCCCCCCNC(=O)OCC	-6
CC(C)(C)c1nc2c(o1)C(=O)c1ccccc1C2=O	27
N#CC(C(=O)Nc1ccccc1)C1=C(Cl)C(=O)c2ccccc2C1=O (stereo unspecified)	98
COc1ccc(-c2cn(-c3ccc(I)cc3)c3ncnc(N)c23)cc1	-5
COc1ccc(NC(=S)N/N=C(\c2ccccc2)c2ccccn2)cc1	-5
C[Si](C)(C)CNC(=O)OCc1ccccc1	1
Fc1ccc(NC(=S)SCc2ccc3c(c2)OCO3)cc1F	49
CCC/C(Cl)=N\OC(=O)Nc1cccc(C(F)(F)F)c1	19
Clc1ccc(SC(/C=C/NNC2=NC(c3ccccc3)C(c3ccccc3)=NN2)c2ccccc2)cc1 (stereo unspecified)	2
Cc1cc2c(cc1C(=O)CCC(=O)O)CC1(C2)Cc2cc(C)c(C(=O)CCC(=O)O)cc2C1	12
Cc1cc(CO)c(O)c(CNCc2cc(C)cc(CO)c2O)c1	-27
